Target: Mouse GLP-1 Receptor (Mus musculus, UniProt O35659)
Construct: expressed in transfected cells; host or cells: CHO cells
Sequence (O35659 22-463): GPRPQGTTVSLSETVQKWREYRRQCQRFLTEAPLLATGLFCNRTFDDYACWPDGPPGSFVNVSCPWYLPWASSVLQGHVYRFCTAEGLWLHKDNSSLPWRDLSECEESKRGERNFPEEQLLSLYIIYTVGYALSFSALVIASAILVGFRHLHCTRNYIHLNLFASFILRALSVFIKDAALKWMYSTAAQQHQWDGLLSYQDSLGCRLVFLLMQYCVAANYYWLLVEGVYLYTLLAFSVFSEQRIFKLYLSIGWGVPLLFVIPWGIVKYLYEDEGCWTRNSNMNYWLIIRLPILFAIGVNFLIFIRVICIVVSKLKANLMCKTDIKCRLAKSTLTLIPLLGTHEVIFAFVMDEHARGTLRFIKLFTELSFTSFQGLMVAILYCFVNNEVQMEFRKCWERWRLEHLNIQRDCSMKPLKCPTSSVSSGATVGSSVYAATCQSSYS
Experiment: Stimulation of cAMP synthesis in CHO cells expressing mouse GLP-1 receptor
Format: cell-based
Conditions: CHO, percent of maximal GLP-1 stimulated activity
Where a SMILES comes first, the peptide text is derived from it. [ ]: non-standard residue; d: D form. The star is where a group is joined. ξ: configuration not given here. Ala(6-(2-MePh)pyridin-3-yl) = Cc1ccccc1-c1ccc(C[C@H](N)C(=O)O)cn1; Phe(4-(2-Et-4-HO-Ph)) = CCc1cc(O)ccc1-c1ccc(C[C@H](N)C(=O)O)cc1; ξαMePhe(2-F) = CC(N)(Cc1ccccc1F)C(=O)O; ξαMeP = CC1(C(=O)O)CCCN1; Moc = COC(=O)*
PROPERTY_MEASURED: Emax (%)
Write the answer as a number in %, unit excluded.

Observed Emax on Mouse GLP-1 Receptor (Mus musculus, UniProt O35659), entry CCc1cc(O)ccc1-c1ccc(C[C@H](NC(=O)[C@H](CC(=O)O)NC(=O)[C@H](CO)NC(=O)[C@@H](NC(=O)C(C)(Cc2ccccc2F)NC(=O)[C@@H](NC(=O)CNC(=O)[C@H](CCC(=O)O)NC(=O)C2(C)CCCN2C(=O)[C@H](Cc2c[nH]cn2)NC(=O)OC)[C@@H](C)O)[C@@H](C)O)C(=O)N[C@@H](Cc2ccc(-c3ccccc3C)nc2)C(N)=O)cc1 (stereo partly shown) [SEQ ID NO: 158] (Moc-H[ξαMeP]EGT[ξαMePhe(2-F)]TSD[Phe(4-(2-Et-4-HO-Ph))][Ala(6-(2-MePh)pyridin-3-yl)]-NH2) , equals 101

Observed Emax on Mouse GLP-1 Receptor (Mus musculus, UniProt O35659), entry CCc1cc(O)ccc1-c1ccc(C[C@H](NC(=O)[C@H](CC(=O)O)NC(=O)[C@H](Cc2c[nH]cn2)NC(=O)[C@@H](NC(=O)[C@](C)(Cc2ccccc2F)NC(=O)[C@@H](NC(=O)CNC(=O)[C@H](CCC(=O)O)NC(=O)[C@]2(C)CCCN2C(=O)C(Cc2c[nH]cn2)OC)[C@@H](C)O)[C@@H](C)O)C(=O)N[C@@H](Cc2ccc(-c3ccccc3C)nc2)C(N)=O)cc1 (single isomer, unassigned) [SEQ ID NO: 175] , equals 100

Observed Emax on Mouse GLP-1 Receptor (Mus musculus, UniProt O35659), entry CCc1cc(O)c(I)cc1-c1ccc(C[C@H](NC(=O)[C@H](CC(=O)O)NC(=O)[C@H](CO)NC(=O)[C@@H](NC(=O)C(C)(Cc2ccccc2F)NC(=O)[C@@H](NC(=O)CNC(=O)[C@H](CCC(=O)O)NC(=O)C2(C)CCCN2C(=O)[C@H](Cc2c[nH]cn2)NC(=O)OC)[C@@H](C)O)[C@@H](C)O)C(=O)N[C@@H](Cc2ccc(-c3ccccc3C)nc2)C(N)=O)cc1 (stereo partly shown) [SEQ ID NO: 164] , equals 103

Observed Emax on Mouse GLP-1 Receptor (Mus musculus, UniProt O35659), entry CCc1cc(O)ccc1-c1ccc(C[C@H](NC(=O)[C@H](CC(=O)O)NC(=O)[C@H](CO)NC(=O)[C@@H](NC(=O)[C@](C)(Cc2ccccc2F)NC(=O)[C@@H](NC(=O)CNC(=O)[C@H](CCC(=O)O)NC(=O)[C@]2(C)CCCN2C(=O)C(Cc2c[nH]cn2)OC)[C@@H](C)O)[C@@H](C)O)C(=O)N[C@@H](Cc2ccc(-c3ccccc3C)nc2)C(N)=O)cc1 (single isomer, unassigned) [SEQ ID NO: 173] , equals 99.7

Entry source: patent US7960349B2
